- Test system: XIP peptide (Xip251-270)
- MEASUREMENT NOTES: small-molecule binders of XIP peptide, primary screen, biochemical, small-molecule microarray, fluorescence 635/667 nm, 0.5 µg/mL protein (AID 1183)
- CONDITION: small-molecule microarray binding, fluorescence 635 nm; higher = more signal
OUTCOME MEASURE: composite z-score

INSERT INTO measurements (cpd_smiles, measured_on, experimental_value) VALUES
  ('C[C@@H](c1ccccc1)N1C(=O)[C@H]2[C@H]3[C@H](O)[C@H](O)CC(=NOC[C@@H](O)COCc4ccco4)[C@H]3CC[C@H]2C1=O', 'XIP peptide (Xip251-270)', 0.316),
  ('C[C@H]1CC[C@H]2C(=O)N[C@H](Cc3ccccc3)C(=O)N2[C@@H]1c1ccccc1', 'XIP peptide (Xip251-270)', 0.647),
  ('CC(C)=CCCC(C)=CCON=C1C[C@@H](O)[C@@H](O)[C@@H]2[C@@H]3C(=O)N(c4cccc(Oc5ccccc5)c4)C(=O)[C@@H]3CC[C@H]12', 'XIP peptide (Xip251-270)', -0.256),
  ('CC(CCN1CCCCc2nc(C)c(C)cc21)=NO[C@@H](C)c1cc(-c2c(C)cc(C)cc2C)no1', 'XIP peptide (Xip251-270)', 0.0399),
  ('COC(=O)C1=C(C)N(Cc2ccccc2)C2=C3C(=O)OCC[C@@H]3[C@@](O)(C(=O)OC)C(=O)N2[C@@H]1c1ccccc1', 'XIP peptide (Xip251-270)', -0.189),
  ('C[C@@H]1CC[C@H]2C(=O)N3[C@@H](CC[C@@H](C)[C@@H]3c3ccc(Br)cc3)C(=O)N2[C@H]1c1ccc(Br)cc1', 'XIP peptide (Xip251-270)', 0.335),
  ('Cc1cc(C)c(-c2cc([C@H](C)ON=C[C@@H](C)[C@H](OCc3ccccc3)C(C)C)on2)c(C)c1', 'XIP peptide (Xip251-270)', -0.291);

* * *

- MEASUREMENT NOTES: A549 cell viability effects, profiling panel, calcein-AM fluorescence, 48 h, basal (AID 1162)
- CONDITION: higher = more signal
OUTCOME MEASURE: z-score

INSERT INTO measurements (compound, experimental_value) VALUES
  ('CCN1C(=O)[C@H]2[C@@H]3C(=CC[C@H]2C1=O)C(=O)[C@H]1O[C@H]1[C@H]3O', -0.163),
  ('CCOC(=O)[C@H](Cc1ccccc1)NC(=O)CCC1CC(OC(=O)NCCc2ccc(F)cc2)CC2(CCCC(COC(=O)NCCOc3ccccc3)O2)O1 (some centres undefined)', 0.613),
  ('CC(CCC(=O)OC[C@H]1O[C@H](C#Cc2ccccc2)C=C[C@@H]1Oc1ccc(C)cc1)=NOC[C@@H](C)[C@H](OCc1ccccc1)C(C)C', -0.284),
  ('CC(=O)OC[C@H]1O[C@H](CC=NOC[C@@H](O)COCc2ccco2)C=C[C@@H]1OC(C)=O', 1.04);

* * *

Listed next: entries and their corresponding z-score.
- MEASUREMENT NOTES: E. coli DRC41 culture turbidity changes, primary screen, E. coli filamentation inducer project, strain DRC41, OD650, 48 h (AID 1152);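 further: E. coli MC1000 strain DRC41 lacking acrAB efflux pump and sulA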
- CONDITION: E. coli DRC41 (acrAB sulA), higher = more signal, called active from +8 up or from −8 down
Calls of active or inactive are those of the source.
OUTCOME MEASURE: z-score

INSERT INTO measurements (compound, experimental_value) VALUES
  ('CO[C@H]1COC(=O)[C@H](CCSC)NC(=O)CC=C[C@@H](C)[C@H](OC)COC(=O)[C@@H](OCc2ccccc2)C=C[C@@H]1C', '0.319 (inactive)'),
  ('COc1ccc(O[C@H]2C=C[C@@H](c3ccccc3)O[C@@H]2COC(=O)NCc2cccc3ccccc23)cc1', '-0.286 (inactive)'),
  ('CC(CCC(=O)OC[C@H]1O[C@H](C#Cc2ccccc2)C=C[C@@H]1Oc1ccc(C)cc1)=NOC(C)CN1CCCc2nc(C)c(C)cc21 (stereo not given in full)', '-0.651 (inactive)'),
  ('COC(=O)[C@@H]1CC[C@H](C)[C@@H](c2ccc(C)cc2)N1C(=O)c1ccc(C=NOC[C@@H](O)[C@H]2O[C@@H]3OC(C)(C)O[C@@H]3[C@H]2O)cc1', '1.44 (inactive)'),
  ('CC(C)CON=C1C[C@@H](O)[C@@H](O)[C@@H]2[C@@H]3C(=O)N(Cc4ccc5c(c4)OCO5)C(=O)[C@@H]3CC[C@@H]12', '-0.0395 (inactive)'),
  ('COC(=O)[C@H](C)NC(=O)CCC1CC(OC(=O)NCc2cccc3ccccc23)CC2(CCCC(COC(=O)NCCOc3ccccc3)O2)O1 (stereo not given in full)', '-0.677 (inactive)'),
  ('CCCCOC(OCCCC)C(O)CSc1ccc2ccccc2c1 (stereo not given)', '0.278 (inactive)'),
  ('O=C1[C@H]2[C@H]3[C@H](O)[C@H](O)CC(=NOCc4ccccc4)[C@@H]3CC[C@H]2C(=O)N1c1cccc(Oc2ccccc2)c1', '1.16 (inactive)'),
  ('COC(=O)[C@H](C)NC(=O)CCC1CC(OC(=O)NCCc2ccc(F)cc2)CC2(CCCC(COC(=O)NCC3CCCCC3)O2)O1 (stereo not given in full)', '-0.56 (inactive)'),
  ('COc1ccc(OC[C@H]2CN3[C@@H](CC[C@@H](C)[C@@H]3c3ccc(Br)cc3)C(=O)O2)cc1', '-0.228 (inactive)'),
  ('C=CC[C@@H]1C=C[C@H](ON=C[C@@H](NS(=O)(=O)c2ccc(C)cc2)[C@H](C)C=CCC(=O)OC)[C@@H](CO)O1', '0.171 (inactive)'),
  ('CO[C@@H]1C=CCC(=O)N[C@@H](C)C(=O)OC[C@@H](OC)[C@H](C)C=CCC(=O)OC[C@H]1C', '0.0083 (inactive)'),
  ('CCOC(=O)[C@H](Cc1ccccc1)NC(=O)CCC1CC(OC(=O)NCc2ccc3c(c2)OCO3)CC2(CCCC(COC(=O)NCCCN3CCCC3=O)O2)O1 (stereo not given in full)', '0.169 (inactive)'),
  ('CC(CCN1CCCc2nc(C)c(C)cc21)=NOC[C@@H](O)COCc1ccco1', '0.768 (inactive)'),
  ('O=C1C[C@@H](O)[C@@H](O)[C@@H]2[C@@H]3C(=O)N(Cc4ccccc4)C(=O)[C@@H]3CC[C@H]12', '-0.675 (inactive)'),
  ('CCN1C(=O)[C@H]2[C@H]3[C@H](O)[C@H](O)CC(=NNC(=O)OCc4ccccc4)[C@H]3CC[C@H]2C1=O', '-1.89 (inactive)'),
  ('COC(=O)C(C(=O)OC)C1CCCC(=O)C1 (stereo not given)', '-1.06 (inactive)'),
  ('COc1ccc(O[C@H]2C=C[C@@H](c3ccccc3)O[C@@H]2COC(=O)CCC(C)=NOC[C@@H](O)COCc2ccco2)cc1', '-1.45 (inactive)'),
  ('CCOC(=O)[C@H](CC(C)C)NC(=O)CCC1CC(OC(=O)NCc2ccc3c(c2)OCO3)CC2(CCCC(COC(=O)NCCOC)O2)O1 (stereo not given in full)', '-2.3 (inactive)'),
  ('CC(C)=CCCC(C)=CCON=C1C[C@@H](O)[C@@H](O)[C@@H]2[C@@H]3C(=O)N(Cc4ccc5c(c4)OCO5)C(=O)[C@@H]3CC[C@H]12', '-0.171 (inactive)'),
  ('CC(CCN1CCc2nc(-c3ccccc3)c(-c3ccccc3)cc2C1)=NOC(C)CN1CCCc2nc(C)c(C)cc21 (stereo not given)', '-0.115 (inactive)'),
  ('O=C1C2=CC[C@H]3C(=O)N(C4CCCCC4)C(=O)[C@H]3[C@H]2[C@H](O)[C@@H]2O[C@H]12', '-1.95 (inactive)'),
  ('CCN1C(=O)[C@H]2[C@H]3[C@H](O)[C@H](O)CC(=NOCC[C@@H]4C=C[C@H](OC(C)=O)[C@@H](COC(C)=O)O4)[C@@H]3CC[C@H]2C1=O', '-0.405 (inactive)'),
  ('CCOC(=O)[C@H](CC(C)C)NC(=O)CCC1CC(OC(=O)NCc2ccc3c(c2)OCO3)CC2(CCCC(COC(=O)NCCc3ccccc3OC)O2)O1 (stereo not given in full)', '-1.08 (inactive)'),
  ('CC(C)=CCCC(C)=CCON=C1C[C@@H](O)[C@@H](O)[C@@H]2[C@@H]3C(=O)N([C@@H](C)c4ccccc4)C(=O)[C@@H]3CC[C@@H]12', '-0.0368 (inactive)'),
  ('C[C@H]1CC[C@H]2C(=O)N[C@H](Cc3ccccc3)C(=O)N2[C@@H]1c1ccccc1', '0.584 (inactive)'),
  ('CON=C(C)CCN1CCc2nc(-c3ccccc3)c(-c3ccccc3)cc2C1', '-0.944 (inactive)'),
  ('CC(C)[C@@H](OCc1ccccc1)[C@H](C)C=NO[C@H](C)c1cn([C@@H]2COC[C@H]2O)nn1', '0.112 (inactive)'),
  ('COC(=O)[C@@H]1CC[C@H](C)[C@@H](c2ccc(Br)cc2)N1C(=O)C(F)(F)F', '-0.643 (inactive)'),
  ('CCN1C(C)=C(C(=O)OC)[C@@H](c2ccccc2)N2C(=O)[C@](O)(C(=O)OC)CC(C(C)=O)=C12', '-0.0844 (inactive)');
